Experiment: The drug is tested on Clostridium scindens strain: ATCC35704 for biotransformation. The drug concentrations were measured before and after a 12-h incubation by liquid-chromatography-coupled mass spectrometry (LC–MS)
Conditions: 2 µM
MEASUREMENT_LABEL: Bacterial Biotransformation

Here is how some compounds turned out for Bacterial Biotransformation.
c1ccc([C@H]2CN3CCSC3=N2)cc1 [LEVAMISOLE] = Compound metabolized
CC1OC(OC2C(O)CC(OC3C(O)CC(OC4CCC5(C)C(CCC6C5CCC5(C)C(C7=CC(=O)OC7)CCC65O)C4)OC3C)OC2C)CC(O)C1O (stereo not given) = Compound metabolized
c1ccc2[nH]c(-c3cscn3)nc2c1 [THIABENDAZOLE] = Compound NOT metabolized
CN1CCOC(c2ccccc2)c2ccccc2C1 (stereo not given) [NEFOPAM] = Compound NOT metabolized
CC(C)(C)NC[C@H](O)COc1nsnc1N1CCOCC1.O=C(O)/C=C\C(=O)O [TIMOLOL MALEATE] = Compound NOT metabolized

Your task in this section: give Bacterial Biotransformation for each listed record.
1. CN(C(=O)CN(CCO)CC(=O)N(C)C(C)(C)Cc1ccccc1)C(C)(C)Cc1ccccc1 [OXETHAZAINE]
2. OCCN(CCO)c1nc(N2CCCCC2)c2nc(N(CCO)CCO)nc(N3CCCCC3)c2n1 [DIPYRIDAMOLE]
3. O=C(CCCN1CCC2(CC1)C(=O)NCN2c1ccccc1)c1ccc(F)cc1 [SPIPERONE]
4. C[C@]12C=CC(=O)C=C1CC[C@@H]1[C@@H]2C(=O)C[C@@]2(C)[C@H]1CC[C@]2(O)C(=O)CO [PREDNISONE]
5. CCOC(=O)C1=C(C)NC(C)=C(C(=O)OC)C1c1cccc([N+](=O)[O-])c1 (stereo not given) [NITRENDIPINE]
6. CCCCC(=O)O[C@]1(C(=O)CO)[C@@H](C)C[C@H]2[C@@H]3CCC4=CC(=O)C=C[C@]4(C)[C@@]3(F)[C@@H](O)C[C@@]21C [BETAMETHASONE VALERATE]

Outgoing:
1. Compound NOT metabolized
2. Compound NOT metabolized
3. Compound NOT metabolized
4. Compound NOT metabolized
5. Compound metabolized
6. Compound metabolized

Would you mind listing Bacterial Biotransformation for each of the following compounds?
1. CC(C)OC(=O)C(C)(C)Oc1ccc(C(=O)c2ccc(Cl)cc2)cc1 [FENOFIBRATE]
2. CNC(=C[N+](=O)[O-])NCCSCc1ccc(CN(C)C)o1 [RANITIDINE]
3. COC(=O)C1=C(C)NC(C)=C(C(=O)OC(C)C)C1c1cccc2nonc12 (stereo not given) [ISRADIPINE]
4. COc1cc2nc(N3CCN(C(=O)C4COc5ccccc5O4)CC3)nc(N)c2cc1OC.CS(=O)(=O)O (stereo not given) [DOXAZOSIN MESYLATE]
5. CCOC(=O)[C@H](CCc1ccccc1)N[C@@H](C)C(=O)N1[C@H](C(=O)O)C[C@@H]2CCC[C@@H]21
6. CC(C)(C#N)c1cc(Cn2cncn2)cc(C(C)(C)C#N)c1 [ANASTROZOLE]
7. CCN(CC)CCNC(=O)c1ccc(NC(C)=O)cc1 [ACECAINIDE]

Outgoing:
1. Compound NOT metabolized
2. Compound metabolized
3. Compound NOT metabolized
4. Compound NOT metabolized
5. Compound NOT metabolized
6. Compound NOT metabolized
7. Compound NOT metabolized

# batch size: 7; output Bacterial Biotransformation per entry
1. CN1C(=O)CC(C)(c2ccccc2)C1=O (stereo not given) [METHSUXIMIDE]
2. COc1ccc2[nH]c([S+]([O-])Cc3ncc(C)c(OC)c3C)nc2c1 (stereo not given) [OMEPRAZOLE]
3. NC(CO)(CO)CO.O=C(c1ccccc1)c1ccc2n1CCC2C(=O)O (stereo not given) [KETOROLAC TROMETHAMINE]
4. C#C[C@]1(O)CC[C@H]2[C@@H]3CCC4=Cc5oncc5C[C@]4(C)[C@H]3CC[C@@]21C [DANAZOL]
5. N[C@@H](Cc1ccc(N(CCCl)CCCl)cc1)C(=O)O
6. COc1ccccc1N1CCN(CC(O)COc2cccc3ccccc23)CC1 (stereo not given) [NAFTOPIDIL]
7. CCCCc1nc(Cl)c(CO)n1Cc1ccc(-c2ccccc2-c2nn[nH]n2)cc1 [LOSARTAN]

Outgoing:
Compound NOT metabolized
Compound metabolized
Compound NOT metabolized
Compound metabolized
Compound metabolized
Compound NOT metabolized
Compound NOT metabolized
